# Tested on: Zika virus NS2B-NS3 protease (linked construct)
# Assay details: Primary screen NINDS Rhodamine qHTS for Zika virus inhibitors (AID 1347160); further: nearly all actives have a fitted effect of over 55% in size
# Run parameters: purified NS2B-NS3 protease, Rhodamine110 substrate fluorescence; series mostly up to 57.1 µM
Results filed as inconclusive are left out. The source made the active and inactive calls. The call rests on the fitted dose curve; in most records, active means well fitted inhibition curve with a large enough effect; inconclusive means small, poorly fitted or top-dose-only effect; inactive means no such curve, though single readings can be large or run the other way.
Hi! Could you answer with just one of these? y for active, n for inactive

# count of solved cases: 3
[
  {
    "Compound": "CN(C(=O)C(c1ccccc1)c1ccccc1)[C@H](CN1CC[C@H](O)C1)c1ccccc1",
    "Category label": "n"
  },
  {
    "Compound": "CC(=O)O[C@H]1C(=O)[C@]2(C)C(O)C[C@H]3OC[C@@]3(OC(C)=O)[C@H]2[C@H](OC(=O)c2ccccc2)[C@]2(O)C[C@H](O)C(C)=C1C2(C)C (stereo not given in full)",
    "Category label": "n"
  },
  {
    "Compound": "C[C@@H]1CCC2[C@@H](C)C(=O)OC3O[C@@]4(C)CCC1[C@]32OO4 (stereo not given in full)",
    "Category label": "n"
  }
]

Lookup: Can you look up the reported call for O=C1CN=C(c2ccccc2Cl)c2cc(Br)ccc2N1 for me?
Found: n

Lookup: Can you look up the reported call for C=C1[C@@H](C)C2[C@H](Cc3ccccc3)NC(=O)[C@@]23C(/C=C/C[C@H](C)C[C@@](C)(O)/C=C/[C@@H]3OC(C)=O)[C@@H]1O (stereo not given in full) for me?
Found: n

Lookup: Can you look up the reported call for COC1C(O)C(C)OC(OC2C(CO)O[C@@H](O[C@@H]3CC4CCC5C(CC[C@]6(C)[C@@H](C7=CC(=O)OC7)CC[C@]56O)[C@@]4(C)[C@H](OC(C)=O)C3)C(O)C2O)C1O (stereo not given in full) for me?
Found: n

Lookup: Can you look up the reported call for Cc1sc2c(c1C)C(c1ccc(Cl)cc1)=NC(CC(=O)Nc1ccc(O)cc1)c1nnc(C)n1-2 (stereo not given) for me?
Found: n

Lookup: Can you look up the reported call for CO[C@H]1C[C@H](O[C@H]2CC[C@]3(C=O)[C@H]4CC[C@]5(C)[C@@H](C6=CC(=O)OC6)CC[C@]5(O)[C@@H]4CC[C@]3(O)C2)O[C@H](C)[C@H]1O for me?
Found: n

Lookup: Can you look up the reported call for c1ccc(C2(c3ccccc3)OC[C@@H]([C@H]3CCCCN3)O2)cc1 for me?
Found: n

Lookup: Can you look up the reported call for C=C(C)[C@@H]1[C@H]2OC(=O)[C@H]1[C@]1(O)C[C@H]3O[C@]34C(=O)O[C@H]2[C@]14C for me?
Found: n

Lookup: Can you look up the reported call for NC(=O)[C@@H](CC1CC1)[C@@H](CCC(F)(F)F)C(=O)N[C@H]1N=C(c2ccccc2)c2cccc(F)c2NC1=O for me?
Found: n

Lookup: Can you look up the reported call for C[C@]12CC[C@@H](O[C@@H]3O[C@H](CO)[C@@H](O)[C@H](O)[C@H]3O)C[C@@]1(O)CCC1C2CC[C@]2(C)[C@@H](C3=CC(=O)OC3)CC[C@]12O (stereo not given in full) for me?
Found: n

Lookup: Can you look up the reported call for C[C@H]1CCC/C=C/C2C[C@H](O)C[C@H]2[C@H](O)/C=C/C(=O)O1 (stereo not given in full) for me?
Found: n

Lookup: Can you look up the reported call for CC[C@@H]1CN2CC[C@@]3(O)C(=Nc4cccc(OC)c43)[C@@H]2C[C@@H]1/C(=C\OC)C(=O)OC for me?
Found: n

Lookup: Can you look up the reported call for CC(C)=CCC[C@]1(C)C=Cc2c(O)c3c(c(CC=C(C)C)c2O1)O[C@]12C(=C[C@@H]4CC1C(C)(C)O[C@@]2(C/C=C(/C)C(=O)O)C4=O)C3=O for me?
Found: y
